Test system: PfAP2-I AP2 domain 3 (GST-tagged)
ASSAY_PROTOCOL: gcPBM binding intensity (ln(normalized median fluorescence intensity)); higher = stronger DNA binding
Over roughly 25,000 sequences, “ln(normalized median fluorescence intensity)” has its median near 7.9; the highest 2% begin near 11. This is one part of a sample in which the highest values are shown more often than they occur.
Catalogue of gcPBM binding intensity (ln) readings, one per entry.
Lab note: jot down the number only; don't add units.

Entry under test: ATATTTTATTTAATTACACACAATATTGCAATTTGT [CACACA_site669] . Its gcPBM binding intensity (ln) was 8.35

Entry under test: GAATGAATGATAAATTTTTTTTTCTTTTTTTTTTTG [CACACA_negctrl_site333] . Its gcPBM binding intensity (ln) was 7.09

Entry under test: AATTTATATAATTTTGTGCACAATATTCATGTATAT . Its gcPBM binding intensity (ln) was 11

Entry under test: TATTTTATTTGTATATTCATTTGTATAATATAAATA [TGCATGCA_negctrl_site267] . Its gcPBM binding intensity (ln) was 7.37

Entry under test: ATAATAATAAAATATATATACAAAGGTGAAATTATA [TGCATGCA_negctrl_site197] . Its gcPBM binding intensity (ln) was 7.96

Entry under test: ATATATATATCAACAACACACGATTAACTAAAAAAA [CACACA_site302] . Its gcPBM binding intensity (ln) was 8.8

Values compiled from the supplement of paper PMC11417369.
